Numbers sourced from PubChem BioAssay.

# assay_protocol: endothelial E-selectin expression blockers – imaging, HUVEC, immunofluorescence, MLSMR starter and 10KST1 sets, primary screen (AID 487);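 note: signal is fraction of cell area covered by stained E-selectin grains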
# condition_details: HUVEC TNFalpha-induced E-selectin immunofluorescence imaging, at 2 µM; hits give high values
measure_name: inhibition (%)

>>> df
                                    compound  measure_name  recorded_number
 0           COc1ccccc1C(=O)NCC(=O)Nc1ccccc1    inhibition               59
 1  CCOc1ccc(Cn2nnc(C(=O)Nc3ccc(OC)cc3OC)c2N)cc1    inhibition             -9.7
 2           Cc1cccc(OCC(=O)Nc2cc(C)ccc2O)c1    inhibition            -15.1
 3  CCOC(=O)c1cccc(NC(=O)C2CCN(S(=O)(=O)c3cccs3)CC2)c1    inhibition            -45.4
 4  Cc1sc2ncnc(OCC(=O)N3CCN(S(=O)(=O)c4ccccc4)CC3)c2c1C    inhibition             16.8
 5  CC(Oc1ccccc1)C(=O)NC1CCN(Cc2ccccc2)CC1 (stereo not drawn)    inhibition              0.4
 6             CCOc1ccc2nc(SCC#N)c(C#N)cc2c1    inhibition              9.9
 7  COc1ccc(C)cc1C(=O)CCC(=O)Nc1ccccc1N1CCOCC1    inhibition            -18.1
 8  O=C(O)CSC1CC(=O)N(c2ccc(Cl)c(Cl)c2)C1=O (stereo not drawn)    inhibition              4.8
 9       O=C(CSc1n[nH]c(=O)[nH]c1=O)c1ccccc1    inhibition            -33.2
10  CCCOc1ccc([C@@H]2C3CN(C(=O)OCC)CC=C3C(C#N)=C(N)C2(C#N)C#N)cc1OC (stereo partly drawn)    inhibition            -44.9
11     CCOc1ccc(NC(=O)COC(=O)Cn2cnnn2)cc1OCC    inhibition             33.9
12  Cc1ccc(C)c(N2CCN(C(=O)c3ccc(CS(=O)(=O)c4ccccc4C)o3)CC2)c1    inhibition            -45.9
13  CC(=O)Nc1cccc(NC(=O)C2CCCN2C(=O)Nc2ccc(C)cc2)c1 (stereo not drawn)    inhibition             -3.5
14  CN(C)CCCN1C(=O)c2oc3ccc(Cl)cc3c(=O)c2C1c1cccnc1 (stereo not drawn)    inhibition              -27
15        Cc1ccc(NC(=O)COC(=O)c2ccn(C)n2)cc1    inhibition            -28.3
16      Cc1sc2ncnc(Oc3ccc(-n4ccnc4)cc3)c2c1C    inhibition            -56.2
17  CS(=O)(=O)N(CC(=O)Nc1cccc(F)c1)Cc1ccccc1    inhibition            -19.3
18  Cc1ccc(-c2cc(C(=O)NCc3ccc4c(c3)OCO4)no2)cc1    inhibition               17
19  CCOC(=O)c1cc2c(=O)n3ccccc3nc2n(CCCOC)c1=NC(=O)C(C)(C)C    inhibition             -203
20  O=C(Nc1ccc(S(=O)(=O)NCCc2ccccc2)cc1)c1ccc(Br)o1    inhibition            -10.4
21  CCC(C)NC(=O)c1cc(-c2ccc(OC)cc2)on1 (stereo not drawn)    inhibition             13.2
22     CC(=O)Nc1ccc(N2CCN(Cc3ccccc3F)CC2)cc1    inhibition             34.5

* * *

# assay_protocol: blockers of RIG-like receptor reporter activation – cell-based, Sendai virus stimulus, luciferase, 10K MLSCN set, TLR/RLR signaling modifier project, primary screen (AID 602276);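 note: firefly luciferase from ISG56 promoter only with Renilla not read in this screen; 0% = Sendai virus plus DMSO and 100% = medium plus DMSO without virus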
# condition_details: HEK293 RL24 IRF3 luciferase reporter, at 10 µM, hits give high values
inhibition below 10% gives 0; inhibition at or above it gives 1.

>>> print(df.to_string())
                                    compound  class_assignment
 0       COC(=O)c1ccc(CSc2nnnn2Cc2ccccc2)cc1                 0
 1  O=C(NCC1CCCO1)c1cccc(N2C(=O)C3C4C=CC(C4)C3C2=O)c1 (centres undefined)                 0
 2          CCOc1ccc(C(=O)Nc2cc(C)on2)cc1OCC                 1
 3  CCCCn1c(CN2CCN(c3cccc(Cl)c3)CC2)nc2c1c(=O)n(C)c(=O)n2C                 1
 4     CCN(C(=O)c1c(-c2ccccc2)noc1C)c1ccccc1                 1
 5  CCn1c(Cc2ccccc2)nnc1SCC(=O)Nc1nc2ccccc2s1                 1
 6            Cc1c(Cl)cccc1NC(=O)CCN1CCCCCC1                 1
 7              O=c1oc2ccccc2c(O)c1CN1CCCCC1                 1
 8              CC1(C)CC(=O)c2c(O)cc(O)cc2O1                 0
 9  CCOc1ccccc1C(=O)NCC(=O)OCC(=O)N1C(C)CCCC1C (centres undefined)                 1
10  CCc1ccc(C2CC(c3cccc(OC)c3)n3nc(N)nc3N2)cc1 (centres undefined)                 1
11  O=C(CN(Cc1ccc(F)cc1)C(=O)c1ccco1)NCc1ccc(F)cc1                 1
12  CCOC(=O)c1c(NC(=O)CSc2nnc(-c3cccnc3)o2)sc(C)c1C                 0
13                    CCOC(=O)c1nnc2ccnn2c1N                 0
14  CCC(=O)c1ccc(OCC(O)CN2CCN(S(=O)(=O)N3CCCCC3)CC2)cc1 (centres undefined)                 1
15           Cc1occc1C(=O)N1CCN(c2ncccn2)CC1                 0
16  CCN(CC)C(=O)C1CCN(CC2CC=CCC2)CC1 (centres undefined)                 0
17      C1=C(CCNc2ncnc3c2cnn3-c2ccccc2)CCCC1                 0
18  COCCN(CCOC)C(=O)c1sc2nc(-c3ccccc3)cn2c1C                 0
19                          CN(C)C=Nc1nonc1N                 1
20  COc1ccccc1NC(=O)N1CCN(c2cccc(C(F)(F)F)c2)CC1                 0
21  CCOC(=O)C1CCN(C(=O)CSc2cc(=O)n(CC)c3ccccc23)CC1                 0
22  CC1CCc2c(sc3c2C2=NS(=O)(=O)CCN2C=N3)C1 (centres undefined)                 1
23          Cc1nc2ccccc2c(=O)n1/N=C/c1ccncc1                 0

* * *

Recorded NADPH fluorescence slope for the following compounds
# subject_of_test: Voltage-gated potassium channel subunit beta-2 (Rattus norvegicus)
# assay_protocol: enhancers of rat Kvbeta2 NADPH turnover – biochemical, NADPH fluorescence, primary screen (AID 623);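 note: fluorescence intensity change per second fitted from 20 to 320 s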
# condition_details: Recombinant KvBeta, NADPH fluorescence decrease slope, 10 min; at 10 µM; hits give low values
measure_name: NADPH fluorescence slope

>>> print(df.to_string())
                                   compound                           subject_of_test              measure_name  recorded_number
0  Cc1cc(S(=O)(=O)N2CCN(c3ccccc3C)CC2)ccc1F  Voltage-gated potassium channel subunit beta-2 (Rattus norvegicus)  NADPH fluorescence slope          1.6e-05
1  COC(=O)Cn1c(=NC(=O)CSCC(=O)Nc2cc(C)on2)sc2ccccc21  Voltage-gated potassium channel subunit beta-2 (Rattus norvegicus)  NADPH fluorescence slope         -6.3e-05
2  CCCn1c(SCC(=O)N2CCc3ccccc3C2)nc2c1c(=O)n(C)c(=O)n2C  Voltage-gated potassium channel subunit beta-2 (Rattus norvegicus)  NADPH fluorescence slope          8.7e-06
3  Cc1cc(C)c(C#N)c(SCC(=O)Nc2ccc(S(=O)(=O)Nc3onc(C)c3C)cc2)n1  Voltage-gated potassium channel subunit beta-2 (Rattus norvegicus)  NADPH fluorescence slope          1.9e-05
4      CCN(C(=O)c1ccnc(C(C)(C)C)c1)c1ccccc1  Voltage-gated potassium channel subunit beta-2 (Rattus norvegicus)  NADPH fluorescence slope         -1.8e-05
5  CC(C)OC(=O)C1C2C=CC3(CN(Cc4cccs4)C(=O)C13)O2 (stereo not given)  Voltage-gated potassium channel subunit beta-2 (Rattus norvegicus)  NADPH fluorescence slope         -1.6e-05
6  CCOC(=O)c1sc(NS(=O)(=O)c2ccc(NC(C)=O)cc2)nc1C  Voltage-gated potassium channel subunit beta-2 (Rattus norvegicus)  NADPH fluorescence slope          1.6e-05
7  CCn1cnc2sc(C(=O)Nc3ccc4c(c3)OCO4)c(C)c2c1=O  Voltage-gated potassium channel subunit beta-2 (Rattus norvegicus)  NADPH fluorescence slope           -7e-05
8  CCSC1(SCC)N=C(N)C2(C#N)C(c3ccccc3)NC(C)=C(C)C12C#N (stereo not given)  Voltage-gated potassium channel subunit beta-2 (Rattus norvegicus)  NADPH fluorescence slope         -1.2e-05
9  O=C(NCc1ccc2c(c1)OCO2)c1ccc(NS(=O)(=O)c2ccc3c(c2)OCCO3)cc1  Voltage-gated potassium channel subunit beta-2 (Rattus norvegicus)  NADPH fluorescence slope         -2.7e-05
